B1: NLV3 TCR beta chain (CDR3β only) (parent)
chain: ASSPTGGSPSPLH
partner: MLVPMVATV

variants of: B1; test: T-Switch: Jurkat TCRβ−/− cells expressing a CDR3 saturation-mutagenesis library, stained with two peptide-HLA-A*02:01 tetramers (original and novel peptide) plus anti-CD3, FACS-sorted into four gates, gDNA sequenced; conditions: with HLA-A*02:01 with peptide … (NLV 3-1, the original bait), tetramers 1 µg/mL, 30 min on ice, DP and SW gates expanded about 10 days between rounds ('two to three rounds of selection' in the Methods), gate SP: higher = more of the variant in the gate that binds the original peptide and not the novel one = retained original binding. Fold enrichment of the CDR3 variant in one FACS gate of a two-tetra, unresolved parent, parent is a CDR3 fragment, scale: fold enrichment, numbering: sequential-on-construct, sequence …
Listed next: entries and their corresponding enrichment.
Give only the figure.

// solved cases for enrichment follow
[
  {
    "MUTANT_ID": "[…] (CDR3 as printed); G6N derived by comparing it with the table's wild-type CDR3 ASSPTGGSPSPLH",
    "enrichment": 0
  },
  {
    "MUTANT_ID": "[…] (CDR3 as printed); S2E derived by comparing it with the table's wild-type CDR3 ASSPTGGSPSPLH",
    "enrichment": 0
  },
  {
    "MUTANT_ID": "[…] (CDR3 as printed); P4R derived by comparing it with the table's wild-type CDR3 ASSPTGGSPSPLH",
    "enrichment": 0.316
  },
  {
    "MUTANT_ID": "[…] (CDR3 as printed); H13L derived by comparing it with the table's wild-type CDR3 ASSPTGGSPSPLH",
    "enrichment": 5.69
  },
  {
    "MUTANT_ID": "[…] (CDR3 as printed); G7Q derived by comparing it with the table's wild-type CDR3 ASSPTGGSPSPLH",
    "enrichment": 0
  },
  {
    "MUTANT_ID": "[…] (CDR3 as printed); P11G derived by comparing it with the table's wild-type CDR3 ASSPTGGSPSPLH",
    "enrichment": 0
  },
  {
    "MUTANT_ID": "[…] (CDR3 as printed); S8T derived by comparing it with the table's wild-type CDR3 ASSPTGGSPSPLH",
    "enrichment": 0
  },
  {
    "MUTANT_ID": "[…] (CDR3 as printed); A1I derived by comparing it with the table's wild-type CDR3 ASSPTGGSPSPLH",
    "enrichment": 0
  },
  {
    "MUTANT_ID": "[…] (CDR3 as printed); P9I derived by comparing it with the table's wild-type CDR3 ASSPTGGSPSPLH",
    "enrichment": 0
  },
  {
    "MUTANT_ID": "[…] (CDR3 as printed); G7Y derived by comparing it with the table's wild-type CDR3 ASSPTGGSPSPLH",
    "enrichment": 4.27
  }
]

Shift focus to the following entry.
Req: Looking for the measured enrichment of […] (CDR3 as printed); A1H derived by comparing it with the table's wild-type CDR3 ASSPTGGSPSPLH , can you help?
Resp: 0
